Target: Egl nine homolog 1 (Homo sapiens)
Sequence (Q9GZT9 whole entry): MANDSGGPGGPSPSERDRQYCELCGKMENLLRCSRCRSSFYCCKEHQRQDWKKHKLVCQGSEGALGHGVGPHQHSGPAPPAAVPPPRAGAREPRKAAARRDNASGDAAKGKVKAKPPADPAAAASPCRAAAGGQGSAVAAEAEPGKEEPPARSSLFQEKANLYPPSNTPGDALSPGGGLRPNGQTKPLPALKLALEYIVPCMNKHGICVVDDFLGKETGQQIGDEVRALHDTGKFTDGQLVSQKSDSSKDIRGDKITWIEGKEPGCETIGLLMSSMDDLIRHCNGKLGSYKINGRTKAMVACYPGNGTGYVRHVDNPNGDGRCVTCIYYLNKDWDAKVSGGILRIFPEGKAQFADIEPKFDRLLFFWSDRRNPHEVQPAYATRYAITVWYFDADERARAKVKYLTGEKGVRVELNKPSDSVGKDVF
Assay: Inhibition of PHD2 in human Hep3B cells assessed as increase in EPO production measured after 24 hrs by ELISA
pEC50: −log10 of the molar value.
reported.property: pEC50

{"columns": ["mol.smiles", "pEC50"],
 "data": [
  ["Cc1ccc(S(=O)(=O)Nc2ncc(C(=O)NCC(=O)O)c(O)n2)cc1", 5.03]
]}

a: O=C(O)CNC(=O)c1cnc(NS(=O)(=O)c2cccc(Cl)c2)nc1O
b: O=C(O)CNC(=O)c1cnc(NS(=O)(=O)c2ccc(Br)cc2)nc1O
For the two items a and b , which reports the higher pEC50 value? Please identify the chosen entry by its label.
a

---

Listing: viability at 12.5 ug/ml of selected molecules
Assay: Cytotoxicity against human Hep3B cells assessed as cell viability at 12.5 ug/ml measured by MTT assay
Type: toxicity, cell-based, Hep 3B2
Details: at 12.5 µg/mL, read-out: Activity
Entry rule: numbers only, all in %.

# count of solved cases: 6
{"columns": ["molecule", "reported.property", "quantity.unit", "measured.result"],
 "data": [
  ["O=C(O)CNC(=O)c1cnc(NS(=O)(=O)c2ccc(-c3ccccc3)cc2)nc1O", "viability at 12.5 ug/ml", "%", 91.9],
  ["O=C(O)CNC(=O)c1cnc(NS(=O)(=O)Cc2ccccc2)nc1O", "viability at 12.5 ug/ml", "%", 90],
  ["O=C(O)CNC(=O)c1cnc(NS(=O)(=O)c2ccc(Br)cc2)nc1O", "viability at 12.5 ug/ml", "%", 100],
  ["O=C(O)CNC(=O)c1cnc(NS(=O)(=O)c2ccc(Cl)c(Cl)c2)nc1O", "viability at 12.5 ug/ml", "%", 89.5],
  ["Cc1nc(C(=O)NCC(=O)O)c(O)c2ccc(Oc3ccccc3)cc12 [ROXADUSTAT]", "viability at 12.5 ug/ml", "%", 89.9],
  ["COc1ccc(S(=O)(=O)Nc2ncc(C(=O)NCC(=O)O)c(O)n2)cc1", "viability at 12.5 ug/ml", "%", 105]
]}

Please supply the value of reported viability at 12.5 ug/ml for the item `Cc1ccc(S(=O)(=O)Nc2ncc(C(=O)NCC(=O)O)c(O)n2)cc1`
98.5

Please supply the value of reported viability at 12.5 ug/ml for the item `O=C(O)CNC(=O)c1cnc(NS(=O)(=O)c2ccc(C(F)(F)F)cc2)nc1O`
97.2

Please supply the value of reported viability at 12.5 ug/ml for the item `O=C(O)CNC(=O)c1cnc(NS(=O)(=O)c2cccc(Cl)c2)nc1O`
95.7

Please supply the value of reported viability at 12.5 ug/ml for the item `O=C(O)CNC(=O)c1cnc(NS(=O)(=O)c2ccc(Cl)cc2)nc1O`
85.5

---

Listing: viability at 100 ug/ml of selected molecules
Test: Cytotoxicity against human Hep3B cells assessed as cell viability at 100 ug/ml measured by MTT assay
Format: toxicity, cell-based, Hep 3B2
Conditions: at 100 µg/mL, read-out: Activity
Entry rule: numbers only, all in %.

{"columns": ["molecule", "measured.result"],
 "data": [
  ["Cc1ccc(S(=O)(=O)Nc2ncc(C(=O)NCC(=O)O)c(O)n2)cc1", 102]
]}

Please supply the value of reported viability at 100 ug/ml for the item `O=C(O)CNC(=O)c1cnc(NS(=O)(=O)c2ccc(-c3ccccc3)cc2)nc1O`
73.4

Please supply the value of reported viability at 100 ug/ml for the item `O=C(O)CNC(=O)c1cnc(NS(=O)(=O)c2cccc(Cl)c2)nc1O`
84.4

Please supply the value of reported viability at 100 ug/ml for the item `COc1ccc(S(=O)(=O)Nc2ncc(C(=O)NCC(=O)O)c(O)n2)cc1`
110

Please supply the value of reported viability at 100 ug/ml for the item `O=C(O)CNC(=O)c1cnc(NS(=O)(=O)Cc2ccccc2)nc1O`
87.5

Please supply the value of reported viability at 100 ug/ml for the item `O=C(O)CNC(=O)c1cnc(NS(=O)(=O)c2ccc(C(F)(F)F)cc2)nc1O`
95.8

Please supply the value of reported viability at 100 ug/ml for the item `O=C(O)CNC(=O)c1cnc(NS(=O)(=O)c2ccc(Cl)c(Cl)c2)nc1O`
90.9

Please supply the value of reported viability at 100 ug/ml for the item `O=C(O)CNC(=O)c1cnc(NS(=O)(=O)c2ccc(Br)cc2)nc1O`
116

Please supply the value of reported viability at 100 ug/ml for the item Cc1nc(C(=O)NCC(=O)O)c(O)c2ccc(Oc3ccccc3)cc12 [ROXADUSTAT]
58.5

Please supply the value of reported viability at 100 ug/ml for the item `O=C(O)CNC(=O)c1cnc(NS(=O)(=O)c2ccc(Cl)cc2)nc1O`
93.4

Attribution: ChEMBL document CHEMBL5214949
